For each entry below, report its protein stability index value.
B1: SAT2 (parent)
chain: IIKKVAEVALDKGCSQFRLAVLDW

- Variants of: B1
- PROTOCOL SUMMARY: protein stability index of a GFP-peptide fusion (GPS, HEK-293T) (PSI 1-6); higher = more stable;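 note: lentivirally expressed fusions sorted by FACS into six bins by GFP to DsRed ratio, PSI derived from sequencing read proportions per bin multiplied by bin number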
- STUDY CONDITIONS: c terminus: a fixed tail appended

Query: Please look up its protein stability index: `IIKKVAEVALDKGCSQFRLAVFDW`
Reply: 1.86

Query: Try this variant too: `IIKKVAYVALDKGCSQFRLAVLDW`
Reply: 2.64

Query: Proceed to `IIKKVAEVALDKGCSQFRLAWLDW`
Reply: 3.21

Query: Moving on to the next variant: `IIKKVAEVALDKGCSQFRLAVLDE`
Reply: 2.23

Query: Another variant: `IIKKVAPVALDKGCSQFRLAVLDW`
Reply: 2.75

Query: Also, `IIKKVAEVALDKGCSQFRLAVLDD` please.
Reply: 1.37

Query: Cool, now `IIKKVAEVALDKGCSQFRLANLDW`
Reply: 1.51

Query: Param item: `IIKKVAEVALDKGCSQFRLAKLDW`
Reply: 1.87

Query: What about `IIKKVAEVALLKGCSQFRLAVLDW` ?
Reply: 1.19

Query: Field entry: `IIKKVAEVILDKGCSQFRLAVLDW`
Reply: 2.87

Query: Quick one: `IIKKVAEVALDKGCSQFRVAVLDW`
Reply: 3.77

Query: Okay, and `IIKQVAEVALDKGCSQFRLAVLDW` ?
Reply: 2.45

Query: Continue with `IIKKVAEPALDKGCSQFRLAVLDW`
Reply: 1.7

Query: // next record `IIKKVAEVALPKGCSQFRLAVLDW`
Reply: 4.36

Query: Next variant up: `IIKYVAEVALDKGCSQFRLAVLDW`
Reply: 2.95

Query: Can you handle `IIKKVAIVALDKGCSQFRLAVLDW` next?
Reply: 1.52

Query: Next: `IIKKVAEVAMDKGCSQFRLAVLDW`
Reply: 4.14

Query: Entry `IIKKVAEVALDKGCSQFRLAVLDS` please
Reply: 3.1

Query: Query `IIKKVAEVALDKGCSQFRLAVLDM` next
Reply: 2.37

Query: And what about the variant `IWKKVAEVALDKGCSQFRLAVLDW` ?
Reply: 1.81

Query: Ok, now `IIKKVAEVALDKGCSQFRLAHLDW`
Reply: 2.52

Query: Now give it for `IIKKVAEVALDKGCSQSRLAVLDW` too.
Reply: 1.03

Query: Consider next the variant `IIKKVAEVALDKGYSQFRLAVLDW` in the same way.
Reply: 2.62

Query: Would you mind doing `IIKKVAEVALDKGCSQFPLAVLDW` as well?
Reply: 2.17

Query: Consider next the variant `IIKKVAEVALDKGCSQFRLAVWDW` in the same way.
Reply: 4.19

Query: What would you report for `IIKKVAEVALDKICSQFRLAVLDW` ?
Reply: 2.37

Query: Input `IIKKVAEVALDKGCSQFRLATLDW`
Reply: 1.78

Query: One more variant: `IIKKVAEVALDKGCSQFRLPVLDW`
Reply: 2.01

Query: Next variant up: `IIKKVAEVALDKGCWQFRLAVLDW`
Reply: 1.79

Query: Okay, and `IIKKVAEWALDKGCSQFRLAVLDW` ?
Reply: 2.76

Query: And what about the variant `IIKKVAEVALDKGCSQTRLAVLDW` ?
Reply: 3.18

Query: Moving on to the next variant: `IIKKFAEVALDKGCSQFRLAVLDW`
Reply: 3.49

Query: Okay, and `IIKKVAEVALDKGCSQKRLAVLDW` ?
Reply: 2.69

Query: Try `IIKKVAEVALDKGCSQFRRAVLDW` next.
Reply: 2.5
